- assay_system: T1, hPDGFRb.mmh (human, UniProt P09619 33-531)
- T1 construct: Soluble monomeric construct; also called soluble human PDGFR-beta.mmh
- T1 sequence (P09619 other isoform, or with tags, fused parts or gaps): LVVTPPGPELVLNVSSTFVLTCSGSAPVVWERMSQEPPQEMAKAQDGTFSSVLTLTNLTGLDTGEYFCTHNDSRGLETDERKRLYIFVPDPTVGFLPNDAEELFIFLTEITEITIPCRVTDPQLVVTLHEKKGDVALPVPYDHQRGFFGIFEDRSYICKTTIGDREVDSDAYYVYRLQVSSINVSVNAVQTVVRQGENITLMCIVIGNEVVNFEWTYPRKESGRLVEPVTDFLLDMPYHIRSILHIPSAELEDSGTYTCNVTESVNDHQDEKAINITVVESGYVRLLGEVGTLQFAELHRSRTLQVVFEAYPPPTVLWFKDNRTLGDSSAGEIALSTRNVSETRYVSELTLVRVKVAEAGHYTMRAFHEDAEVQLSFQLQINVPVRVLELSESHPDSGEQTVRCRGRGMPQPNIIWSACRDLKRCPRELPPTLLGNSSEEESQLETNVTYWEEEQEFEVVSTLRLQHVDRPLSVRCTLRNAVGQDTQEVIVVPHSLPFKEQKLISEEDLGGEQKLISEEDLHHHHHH
- protocol_description: SPR, mAb captured, 25 C
- Protocol: Antibodies, expressed as either mouse Fc (prefix H1M; H2M) or human Fc (prefix H4H), were captured on their respective anti-Fc sensor surfaces (Mab capture format). […] Kinetic association (kₐ) and dissociation (kd) rate constants were determined by processing and fitting the data to a 1:1 binding model using Scrubber 2.0 curve fitting software.
Record form. Attribute: koff. Fill in for each entry.
Numbers only, in s⁻¹.

# batch size: 2; output koff per entry
1. H4H3103S (antibody, human IgG4, V domains shown, human IgG4 Fc (H4H prefix)) VH: EVQLLQSGGGLVQPGGSLRLSCAASGFTFSHYWMSWVRQGPGKGLEWVATIKKDGSESYYVDSVRGRFTISRDNAKNSLYLQMNSLRTEDTAVYYCARDIVTPNVGYYFGMDVWGQGTTVTVSS VL: DIQMTQSPSTLSASVGDRVTITCRASQSISSWLSWYQQKPGKAPKLLIYMASTLESGVPSRFSGSGSGTDFTLTITSLQPDDFATYYCQQSNSYSRTFGHGTKLEIK
2. H4H3374N (antibody, human IgG4, V domains shown, human IgG4 Fc (H4H prefix)) VH: QLQLQESGPGLVKPSETLSLTCTVSGGSITSSSYYWGWIRQPPGKGLEWIGSIYYRGSTNYNPSLKSRVTISVDSSKNQFYLKVSSVTAVDTAVYYCARQNGAARPSWFDPWGQGTLVTVSS VL: EIVLTQSPDTISLSPGERATLSCRASQSISSIYLAWYQQKPGQAPRLLIYGASSRVTGIPDRFSVSGSGTDFTLTISRLEPEDFAVYYCQHYGISPFTFGPGTKVDIR

(A)
1. 0.00105
2. 0.000358
